# Lookup of reported IC50 keyed by entry
- TARGET_ENTITY: Carboxylic ester hydrolase (Equus caballus, UniProt Q9N1N9)
- Sequence (Q9N1N9 whole entry): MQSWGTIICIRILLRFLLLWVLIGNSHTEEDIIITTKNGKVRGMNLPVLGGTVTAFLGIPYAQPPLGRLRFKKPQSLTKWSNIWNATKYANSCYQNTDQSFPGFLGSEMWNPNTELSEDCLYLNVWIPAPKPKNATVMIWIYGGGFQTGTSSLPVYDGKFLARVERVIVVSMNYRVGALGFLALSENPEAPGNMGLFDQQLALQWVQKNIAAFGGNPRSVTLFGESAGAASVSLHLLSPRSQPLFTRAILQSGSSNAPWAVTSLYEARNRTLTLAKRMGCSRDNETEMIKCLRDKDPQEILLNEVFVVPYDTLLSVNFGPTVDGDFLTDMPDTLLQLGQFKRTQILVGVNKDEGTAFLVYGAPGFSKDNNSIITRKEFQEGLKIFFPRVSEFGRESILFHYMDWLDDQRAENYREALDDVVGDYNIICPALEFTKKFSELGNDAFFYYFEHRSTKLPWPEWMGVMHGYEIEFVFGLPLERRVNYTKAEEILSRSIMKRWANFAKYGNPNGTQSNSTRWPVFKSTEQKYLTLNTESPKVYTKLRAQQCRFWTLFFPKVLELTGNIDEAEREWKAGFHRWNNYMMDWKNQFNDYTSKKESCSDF

COMPOUND: COc1cccc(/C=C2\CCc3ccc(Cl)cc3C2=O)c1Cl
RESULT_OPERATOR: >
IC50 / µM: 100
--
COMPOUND: COc1cccc(/C=C2\CCc3c(OC)cccc3C2=O)c1Cl
RESULT_OPERATOR: >
IC50 / µM: 100
--
COMPOUND: COc1cc(/C=C2\CCc3c(O)cccc3C2=O)c(Br)c(OC)c1OC
RESULT_OPERATOR: =
IC50 / µM: 76.9
--
COMPOUND: COc1ccc(OC)c2c1CC/C(=C\c1cc(OC)c(OC)c(OC)c1Br)C2=O
RESULT_OPERATOR: =
IC50 / µM: 9.8
--
COMPOUND: COc1cc(/C=C2\CC(C)c3ccccc3C2=O)c(Br)c(OC)c1OC (stereo not given)
RESULT_OPERATOR: =
IC50 / µM: 12.5
--
COMPOUND: COc1ccc(/C=C2\CCc3c(O)cccc3C2=O)c(Cl)c1OC
RESULT_OPERATOR: >
IC50 / µM: 100
--
COMPOUND: COc1ccc(/C=C2\CCc3ccc([N+](=O)[O-])cc3C2=O)c(Cl)c1OC
RESULT_OPERATOR: =
IC50 / µM: 17.5
--
COMPOUND: COc1cc(/C=C2\CCc3ccccc3C2=O)c(Br)c(OC)c1OC
RESULT_OPERATOR: >
IC50 / µM: 100
--
COMPOUND: COc1cccc2c1CC/C(=C\c1ccc(OC)c(OC)c1Cl)C2=O
RESULT_OPERATOR: >
IC50 / µM: 100
--
COMPOUND: COc1ccc(/C=C2\CC(C)c3ccccc3C2=O)c(Cl)c1OC (stereo not given)
RESULT_OPERATOR: =
IC50 / µM: 27.2
--
COMPOUND: COc1cc2c(cc1OC)C(=O)/C(=C/c1cccc(OC)c1Cl)CC2
RESULT_OPERATOR: >
IC50 / µM: 100
--
COMPOUND: COc1cc(/C=C2\CCc3ccc([N+](=O)[O-])cc3C2=O)c(Br)c(OC)c1OC
RESULT_OPERATOR: =
IC50 / µM: 6.2
--
COMPOUND: COc1cccc(/C=C2\CCc3c(OC)ccc(OC)c3C2=O)c1Cl
RESULT_OPERATOR: >
IC50 / µM: 100
--
COMPOUND: COc1ccc(OC)c2c1CC/C(=C\c1ccc(OC)c(OC)c1Cl)C2=O
RESULT_OPERATOR: =
IC50 / µM: 24.7
--
COMPOUND: COc1ccc(/C=C2\CCc3ccc(Br)cc3C2=O)c(Cl)c1OC
RESULT_OPERATOR: >
IC50 / µM: 100
--
COMPOUND: COc1cc(/C=C2\CCc3ccc(Cl)cc3C2=O)c(Br)c(OC)c1OC
RESULT_OPERATOR: =
IC50 / µM: 48.9
--
COMPOUND: COc1cccc(/C=C2\CCc3c(O)cccc3C2=O)c1Cl
RESULT_OPERATOR: >
IC50 / µM: 100
--
COMPOUND: COc1cc(/C=C2\CCc3ccc(F)cc3C2=O)c(Br)c(OC)c1OC
RESULT_OPERATOR: =
IC50 / µM: 89.4
--
COMPOUND: COc1cccc2c1CC/C(=C\c1cc(OC)c(OC)c(OC)c1Br)C2=O
RESULT_OPERATOR: =
IC50 / µM: 92.5
--
COMPOUND: COc1ccc2c(c1)CC/C(=C\c1ccc(OC)c(OC)c1Cl)C2=O
RESULT_OPERATOR: =
IC50 / µM: 22.9
